B1: SEPHS2 (parent)
chain: KASGRFGLLQGTSAETSGGLLICL

- Variants of: B1
- ASSAY DETAILS: protein stability index of a GFP-peptide fusion (GPS, HEK-293T) (PSI 1-6); higher = more stable;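 also: lentivirally expressed fusions sorted by FACS into six bins by GFP to DsRed ratio, PSI derived from sequencing read proportions per bin multiplied by bin number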
- SETTINGS: c terminus: a fixed tail appended
Measured protein stability index determines class: Low (below 2), Mid (2 to below 3), High (3 or more)

// query Class? Entry: `KASGRFGLLQTTSAETSGGLLICL`
// result High

// query Kindly identify the class of `KASGRFGLLQGTSAETSGGLLICK` .
// result Mid

// query Which protein stability index band matches `KASGRFGVLQGTSAETSGGLLICL` ?
// result High

// query Place this variant in its band: `KASGRFGLLQGLSAETSGGLLICL`
// result High

// query Sort `KASGRFGLLQGTSAETSGGLLITL` into one of the categories.
// result Low

// query For `KASGRFGLLQGTSAETSGGLLFCL` , which protein stability index bin applies?
// result High

// query Lab note: sort `KASGRFGLLQGTSAETSGGLLIAL` into the matching protein stability index band.
// result Low

// query Class (by measured protein stability index) for `KASGRFGLLQGTSAETSGGLVICL`
// result Mid

// query Given `KASGRYGLLQGTSAETSGGLLICL` , name the class its protein stability index places it in.
// result Low

// query Bin this entry: `KASTRFGLLQGTSAETSGGLLICL`
// result High

// query Sort into band: `KASGRFGLLQGTSAITSGGLLICL`
// result Low

// query Where would `KASGWFGLLQGTSAETSGGLLICL` land among the classes by reported protein stability index?
// result Low

// query Which protein stability index category applies to `KASGRFGLLQGTSAETSGHLLICL` here?
// result Low

// query Form field 'band' for `KASGRFGLLQGTSAETSGGLPICL`
// result Mid

// query Into which bin does this variant go? `KASGRFGLLQGTSAETSGGLTICL`
// result Mid

// query Note: place this variant into its band. Item: `KASGRFGLLQGTSAETSGGLLISL`
// result Low

// query Class for `KASGRFGLLQGTSAETSQGLLICL` ?
// result Mid

// query Where would `KASGRFGLLQGTSAETSGGLLYCL` land among the classes by reported protein stability index?
// result Low
